# Assayed target: beta-catenin/TCF4 engagement (Homo sapiens, UniProt P35222)
# Construct: expressed in transfected cells; host or cells: HEK293
# Sequence (P35222 whole entry): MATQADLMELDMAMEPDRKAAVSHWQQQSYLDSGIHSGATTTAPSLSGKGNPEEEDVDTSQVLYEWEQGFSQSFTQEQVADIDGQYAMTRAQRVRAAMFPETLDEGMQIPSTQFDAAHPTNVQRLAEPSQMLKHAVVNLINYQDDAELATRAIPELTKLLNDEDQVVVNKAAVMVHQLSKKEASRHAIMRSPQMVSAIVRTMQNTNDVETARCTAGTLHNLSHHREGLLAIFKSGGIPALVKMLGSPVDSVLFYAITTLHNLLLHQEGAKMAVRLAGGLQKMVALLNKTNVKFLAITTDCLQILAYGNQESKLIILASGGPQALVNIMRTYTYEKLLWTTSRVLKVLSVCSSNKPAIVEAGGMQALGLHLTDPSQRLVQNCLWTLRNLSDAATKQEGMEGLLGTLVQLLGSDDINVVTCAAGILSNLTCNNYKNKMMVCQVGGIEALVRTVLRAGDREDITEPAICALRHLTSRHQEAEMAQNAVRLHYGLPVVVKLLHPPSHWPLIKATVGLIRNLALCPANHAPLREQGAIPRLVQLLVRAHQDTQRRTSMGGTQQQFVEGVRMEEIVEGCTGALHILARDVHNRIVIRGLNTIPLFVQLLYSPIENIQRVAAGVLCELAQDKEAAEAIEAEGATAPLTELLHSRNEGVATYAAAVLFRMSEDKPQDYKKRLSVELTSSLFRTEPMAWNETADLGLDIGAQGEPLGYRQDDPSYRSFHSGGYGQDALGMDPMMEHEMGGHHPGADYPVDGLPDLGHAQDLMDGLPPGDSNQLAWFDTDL
# Experiment notes: Nano-BRET target engagement assay (B-cat-Halo & TCF4-Luc in HEK293 cells)
# Assay type: cell-based
# Condition info: absolute IC50; read-out: NanoBRET Abs IC50
Could you please report measured pIC50 for the items listed next?
One number for each entry, as −log10 of the molar value.

{"Compound": "CC(=O)N1CCC[C@]12CC=CCCCC1(CCCC=CCCCOC(=O)N3CC[C@@](C(=O)N[C@@H](Cc4ccsc4)C(=O)N[C@@H](Cc4ccc5c(c4)CCC5)C(=O)N[C@@H](CCC(N)=O)C(N)=O)(C3)NC(=O)[C@H](CC(C)C)NC(=O)[C@H](Cc3ccccc3)NC(=O)[C@H](C)NC(=O)[C@H](C)NC(=O)[C@H](Cc3cccc(C(=O)O)c3)NC(=O)[C@H](CC(=O)O)NC1=O)NC(=O)[C@H](CC(C)(C)C)NC(=O)[C@H](CC(=O)O)NC2=O (stereo partly shown)", "Reported value": 5.48}

So the reported pIC50 for CC(=O)N1CCC[C@]12CC=CCCCC1(CCCC=CCCCOC(=O)N3CC[C@@](C(=O)N[C@@H](Cc4ccsc4)C(=O)N[C@@H](Cc4csc5ccccc45)C(=O)N[C@@H](Cc4ccccc4C(N)=O)C(N)=O)(C3)NC(=O)[C@H](CC(C)C)NC(=O)[C@H](Cc3ccccc3)NC(=O)[C@H](C)NC(=O)[C@H](C)NC(=O)[C@H](CN(CC(=O)O)CC(F)(F)F)NC(=O)[C@H](CC(=O)O)NC1=O)NC(=O)[C@H](CC(C)(C)C)NC(=O)[C@H](CC(=O)O)NC2=O (stereo partly shown) , on beta-catenin/TCF4 engagement (Homo sapiens, UniProt P35222), turned out to be 5.21
